A collection of molecules and their measured melting point
API: value field is a number in °C; no unit string.

Data request: Return the recorded melting point value; entry: "COc1ccc(C2=C(c3c[nH]c4ccccc34)C(=O)NC2=O)cc1OC"
Data returned: 210

Data request: Please list melting point recorded for the molecule CC(C)NCC(O)COC1c2ccccc2C(=O)N1c1cccc(Cl)c1 (stereo not given)
Data returned: 128

---

Listed compounds paired with reported melting point

[[record]]
compound = "O=S(=O)(Nc1ccc2ccc(OCc3ccc4ccccc4n3)cc2c1)C(F)(F)F"
result = "172 to 175 °C"

[[record]]
compound = "COc1cc(C=CC(=O)c2cc(OC)c(OC)c(OC)c2)cc(C(F)(F)F)c1O"
result = "190 to 192 °C"

[[record]]
compound = "COC(=O)c1cc(C(C)=O)ccc1OCCCC(=O)O"
result = "111 to 113 °C"

[[record]]
compound = "Brc1ccc2c3c(cccc13)C(NCCCCCn1ccnc1)=N2"
result = "138 to 140 °C"

[[record]]
compound = "Cc1cc(N)ccc1N1CCOCC1"
result = "83 to 84 °C"


Now consider a different compound.
Data request: Using the record for O=C(O)CCCCNC(=O)C(CS)Cc1ccccc1 (stereo unspecified) , state its measured melting point.
Data returned: 78 to 79 °C

Provenance of the data: a melting point compilation (Tetko et al.; mined from patent text by program, amines drawn as free bases though some values may be those of a salt)
